# method: viability of HCT116 without oncogenic beta-catenin – human colon tumor cells, pilot screen (AID 823);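 note: 0% = wells killed by 20 µM Hyamine and 100% = untreated DMSO cell wells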
# conditions-used: HCT116 beta-catenin knockout viability, CellTiter-Glo, 60 h; at 10 µM; hits give low values
Inconclusive results are not listed.
measure-name: viability (%)
// return numeric value only (unit: %, not printed)

Sample CN1CCN(Cc2nc3c(c(=O)[nH]c(=O)n3C)n2CCc2ccccc2)CC1 — what was its viability?
92

Moving on to the next molecule: Cc1ccnc(NC(=O)C2CCC(CNc3c(N4CCCC4)c(=O)c3=O)CC2)c1 (centres undefined)
72.4

Cc1cccc(Cn2c(SCCN3CCCCC3)nc3c2c(=O)[nH]c(=O)n3C)c1 , same question.
92.4

Moving on to Cc1ccc(-c2nc(C#N)c(N3CCCCC3)o2)cc1
98

Do the same for COc1ccc(C)cc1NC(=O)C1CCCN(S(=O)(=O)c2c(C)noc2/C=C/N(C)C)C1 (centres undefined) please
102

Likewise for CC(OC(=O)c1cc[n+]([O-])cc1)C(=O)Nc1ccc(Cl)cn1 (centres undefined) ?
102

Let us now turn to COc1cccc(-n2c(SCC(=O)Nc3cc(C)on3)nc3c([nH]c4ccccc43)c2=O)c1
82

---

# method: RAM signaling pathway blockade in yeast – S. cerevisiae, Pdr1DBD-CYC8 efflux-inhibited sensitized strain, primary screen (AID 1298);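 note: 0% = DMSO untreated cells without growth and 100% = 10 µM 1-NA-PP1 full growth; higher means more yeast growth rescued from 5-FOA killing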
# conditions-used: S. cerevisiae cbk1-as DSE1-URA3 strain, 5-FOA growth OD615, 2 d; at 50 µM; hits give high values
Calls of active or inactive are those of the source.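 How the source made its calls: active means RAM network inhibition above 8.4% in each of two replicates, 3 SD over the compound average; inconclusive means above 8.4% inhibition in only one replicate; inactive means 8.4% inhibition or less in each replicate.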
measure-name: RAM network inhibition

Worked set:
1. CSc1nc2ccccc2c(=O)n1N: 4.29% (inactive)
2. CC(NC(=O)c1ccc(Cl)cc1)C(=O)N1CCCCC1 (stereo unspecified): 5.32% (inactive)
3. Cc1ccc(CNC(=O)c2cc3c(=O)n(C)c4ccccc4c3n2C)o1: 4.84% (inactive)
4. CC(NC(=O)C1CCC1)c1ccc2c(c1)OCO2 (stereo unspecified): 0.83% (inactive)
5. Cc1ccc(C(=O)Nc2ccccc2NC(=O)c2ccc(C)o2)o1: 3.58% (inactive)

Now for the compound whose RAM network inhibition we want.
Dear colleague, I am looking for the recorded RAM network inhibition of the following compound: CCn1c(=O)c2cc(C(=O)NCc3cccs3)sc2c2ccccc21
4.3% (inactive)

---

# method: yeast transport mutant growth inhibition pilot in 384-well plates, post-Golgi transport modulator project (AID 636)
# conditions-used: absorbance 615 nm, about 18 h, hits give high values
Recorded inhibition by entry
Express your answer in %, writing the number without its unit.

1) CCOC(=O)c1cc2c(=O)n3ccccc3nc2n(CCCOC)c1=NC(=O)C(C)(C)C: -7.4
2) CSc1ccccc1NC(=O)c1cnc2n(c1=O)CCS2: -1.87
3) CCn1cc(C(=O)NCCC2=CCCCC2)c(=O)c2cc(S(=O)(=O)N(C)C)ccc21: -4.67
4) CCOC(=O)Cn1ncc(-c2ccccc2)c1N: -7.95

Here is another compound to look at.
Quick one: inhibition of CCSC1=C(C#N)C(c2ccccc2OC)CC(=O)N1 (stereo unspecified) ?
-1.73

---

# method: doxorubicin toxicity protection in MRP-1 cells – H69AR cells, CellTiter-Glo, duplicate, MRP-1 activator project, pilot screen (AID 807);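 note: compound pretreatment 18-22 h then 72 h combined with doxorubicin; 0% = doxorubicin alone and 100% = vehicle without doxorubicin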
# conditions-used: H69AR viability with doxorubicin, CellTiter-Glo luminescence; at 10 µM; hits give high values
measure-name: viability increase (%)
Write the number in % without appending the unit.

# input compound: Cc1ccc(S(=O)(=O)Cc2ccc(C(=O)N3CCN(Cc4ccccc4)CC3)o2)cc1 ; wanted: its viability increase
-1.59
